target.under.test: human recombinant HSF1 full-length protein (Homo sapiens)
Sequence (Q00613 whole entry): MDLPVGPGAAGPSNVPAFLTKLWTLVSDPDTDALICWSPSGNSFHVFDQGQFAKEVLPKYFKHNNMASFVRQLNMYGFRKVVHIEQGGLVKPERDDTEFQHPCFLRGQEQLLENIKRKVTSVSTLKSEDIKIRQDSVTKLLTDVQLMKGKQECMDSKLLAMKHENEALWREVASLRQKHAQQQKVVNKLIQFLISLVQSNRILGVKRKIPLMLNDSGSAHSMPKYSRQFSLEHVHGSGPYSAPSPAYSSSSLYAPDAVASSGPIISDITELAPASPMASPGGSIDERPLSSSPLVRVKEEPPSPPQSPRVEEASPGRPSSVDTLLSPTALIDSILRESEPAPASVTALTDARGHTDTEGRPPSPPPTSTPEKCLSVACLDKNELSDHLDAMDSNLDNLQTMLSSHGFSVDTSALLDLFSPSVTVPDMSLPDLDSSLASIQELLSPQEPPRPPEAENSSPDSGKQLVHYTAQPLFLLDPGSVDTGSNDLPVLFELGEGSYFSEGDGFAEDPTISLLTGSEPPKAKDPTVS
assay.protocol: SPR direct binding to HSF1
pKd: −log10 of the molar value.

molecule: COc1cc2c(c(OC)c1OC)-c1c(cc(OC)c(OC)c1OC)C[C@H](C)[C@H](C)C2 [Sch A, Schizandrin A]
target.under.test: human recombinant HSF1 full-length protein (Homo sapiens)
pKd: 3.97
